test system: HT 1080 cells; assay: Invasion assay (Matrigel transwell); assay type: cell-based, Human; details: Homo sapiens, HT-1080; 0.8, 1.6 and 2.4 mM, 18 hours; read-out: IC50 HT 1080 crossing membrane to the lower chamber (invasion)
pIC50: −log10 of the molar value.
TEST READOUT: pIC50

{"COMPOUND": "NC(CCC(=O)NO)C(=O)O [DH, L-Glutamic acid γ-hydroxamate]", "RESULT": 2.90}

###

tested on: HT 1080 cells; assay: Wound healing assay and colony dispersion assay (cell migration); assay type: cell-based, Human; settings: Homo sapiens, HT-1080; 0.4, 1.2, 2 and 2.8 mM, 18 hours
TEST READOUT: IC50

{"MOLECULE": "NC(CCC(=O)NO)C(=O)O [DH, L-Glutamic acid γ-hydroxamate]", "RESULT": "1750 µM"}
